Entry source: BindingDB's records for patent US20250325529

Molecular target: Fatty acid-binding protein, heart (Homo sapiens, UniProt P05413)
Sequence (P05413 whole entry): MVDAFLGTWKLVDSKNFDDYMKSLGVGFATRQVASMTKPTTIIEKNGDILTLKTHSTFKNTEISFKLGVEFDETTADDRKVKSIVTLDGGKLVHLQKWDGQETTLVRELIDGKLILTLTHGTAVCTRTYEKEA
attribute.measured: Kd (nM)
The response must be a number in nM with no trailing unit.

The reported Kd of the compound "CC(C)Oc1nc(NC(=O)CC(C)(C)CC(=O)O)c(Cl)cc1Cl" was 60.8
